Test: Experimental LogD (partition coefficient)
Details: not stated, Partition Coeff LogD
Positions of bridges follow the written chain, without caps; N, C: chain ends. Non-standard residues stand in square brackets, D forms with d. Residues, ends and D or L forms follow the SMILES beside them. Lys(N3) = [N-]=[N+]=NCCCC[C@H](N)C(=O)O; R8 = C=CCCCCCC[C@@](C)(N)C(=O)O; Cba = N[C@@H](CC1CCC1)C(=O)O; S5 = C=CCCC[C@](C)(N)C(=O)O; βAla = NCCC(=O)O
Endpoint Label: logD

| Compound | Obs Value |
| --- | --- |
| CC(=O)N[C@@H](CCCCN=[N+]=[N-])C(=O)NCCC(=O)N[C@H](C(=O)N[C@H](C(=O)N[C@@H](Cc1ccccc1)C(=O)N[C@]1(C)CCCCCCC=CCCC[C@@](C)(C(=O)N[C@@H](CO)C(=O)N[C@@H](C)C(=O)N[C@@H](C)C(N)=O)NC(=O)[C@H](CC2CCC2)NC(=O)[C@H](CCC(N)=O)NC(=O)[C@H](C(C)C)NC(=O)[C@H](Cc2c[nH]c3ccccc23)NC(=O)[C@H](Cc2ccc(O)cc2)NC(=O)[C@H](C(C)C)NC1=O)[C@@H](C)O)C(C)C [MP-490] (Ac-[Lys(N3)][βAla]VTF[R8]VYWVQ[Cba][S5]SAA-NH2; staple 6-13) | 4 |
